Item-by-item account of −logEC50
system: high kalium concentration constricted rabbit aorta; assay: Relaxing effects on vascular smooth muscle constricted by high kalium concentration in vitro; settings: relaxation of rabbit aorta constricted by high kalium solution (K+ 60 mmol/L); mean±SEM, n=5
reported-metric: −logEC50

>>> assay_value("Fc1ccc2nnn(CCCCN3CCC(c4cccc(C(F)(F)F)c4)CC3)c2c1")
"4.03 ± 0.04"
>>> assay_value("COc1ccc2nnn(CCCN3CCC(c4noc5ccccc45)CC3)c2c1")
"4.11 ± 0.03"
>>> assay_value("COc1ccc2nnn(CCCN3CCC(c4noc5cc(F)ccc45)CC3)c2c1 [II-91]")
"4.02 ± 0.05"

###

// −logEC50 lookup, one value per entry
system: NA constricted rabbit aorta; assay: Relaxing effects on vascular smooth muscle constricted by noradrenaline (NA) in vitro; details: relaxation of rabbit aorta constricted by noradrenaline (10^−5 mol/L); mean±SEM, n=5
reported-metric: −logEC50

>>> assay_value("COc1ccc2nnn(CCCN3CCC(c4noc5ccccc45)CC3)c2c1 [II-142]")
"6.07 ± 0.04"
>>> assay_value("Fc1ccc2c(C3CCN(CCCn4nnc5ccc(F)cc54)CC3)noc2c1 [II-88]")
"5.73 ± 0.05"
>>> assay_value("FC(F)(F)c1cccc(C2CCN(CCCOn3nnc4ccccc43)CC2)c1 [II-133]")
"5.36 ± 0.05"
>>> assay_value("c1cnc(C2CCN(CCCCn3cnc4ccccc43)CC2)nc1 [II-154]")
"4.52 ± 0.04"
>>> assay_value("c1ccc2c(C3CCN(CCCCn4nnc5ccccc54)CC3)cccc2c1 [II-156]")
"4.34 ± 0.04"
>>> assay_value("N#Cc1ccc2nnn(CCCCN3CCC(c4cccc(C(F)(F)F)c4)CC3)c2c1 [II-132]")
"4.53 ± 0.02"
>>> assay_value("c1coc(C2CCN(CCCCn3cnc4ccccc43)CC2)c1 [II-152]")
"4.23 ± 0.03"
>>> assay_value("Clc1cccc(C2CCN(CCCCn3cnc4ccccc43)CC2)c1 [II-124]")
"5.11 ± 0.02"
>>> assay_value("COc1ccc2c(C3CCN(CCCn4nnc5ccccc54)CC3)noc2c1 [II-87]")
"5.04 ± 0.03"
>>> assay_value("FC(F)(F)c1cccc(C2CCN(CCCOn3cnc4ccccc43)CC2)c1 [II-134]")
"5.15 ± 0.06"
>>> assay_value("c1ccc2c(c1)ncn2CCCCN1CCC(c2ccncc2)CC1 [II-153]")
"4.66 ± 0.02"
>>> assay_value("O=Cc1ccc2nnn(CCCN3CCC(c4noc5cc(F)ccc45)CC3)c2c1 [II-141]")
"5.73 ± 0.04"
>>> assay_value("FC(F)(F)c1cccc(C2CCN(CCCCn3nnc4ccccc43)CC2)c1 [II-127]")
"6.45 ± 0.03"
>>> assay_value("COc1ccc2nnn(CCCN3CCC(c4noc5cc(F)ccc45)CC3)c2c1 [II-140]")
"5.31 ± 0.05"
>>> assay_value("Clc1cccc(C2CCN(CCCCn3nnc4ccccc43)CC2)c1 [II-125]")
"5.27 ± 0.03"
>>> assay_value("FC(F)(F)c1cccc(C2CCN(CCCCn3cnc4ccccc43)CC2)c1 [II-126]")
"6.32 ± 0.04"
>>> assay_value("c1ccc2c(c1)nnn2CCCCN1CCC(C2CCCCC2)CC1 [II-155]")
"4.44 ± 0.05"
>>> assay_value("c1ccc2nc(C3CCN(CCCCn4nnc5ccccc54)CC3)cnc2c1 [II-157]")
"4.53 ± 0.05"
>>> assay_value("COc1ccccc1C1CCN(CCCCn2cnc3ccccc32)CC1 [II-129]")
"4.55 ± 0.03"

Entry source: patent US9415047B2
